Data origin, for the record: paper PMC12040169

assay: in vitro; conditions: human, hela cells, % viability
Recorded Endpoint: viability at 28.5 h, 10 µM (%)
Number in %, nothing else.

c1ccc(CCN2CCC(Cc3ccccc3)CC2)cc1; 96.3
CC1=NN(C(=O)CSCc2ccccc2)C(O)(c2ccc(Cl)cc2)C1 (stereo not drawn); 92.7
CNC(=O)c1ccc(-c2ccc(C(C)=O)s2)nc1NCC1CC1; 95.3
O=C1CC(c2cccs2)CC(=O)C1=CNCCN1CCNCC1 (stereo not drawn); 105
OC(CN1CCC(O)(c2cccc(C(F)(F)F)c2)CC1)c1ccccc1 (stereo not drawn); 109

Prompt line: Using the record for COc1ccc(-n2c(S)nnc2-c2cc(C(C)(C)C)n[nH]2)cc1 , report its viability at 28.5 h, 10 µM.
Response line: 97.9

Prompt line: Returns the measured viability at 28.5 h, 10 µM for the input compound. Input: N#Cc1c(NC(=O)C(=O)NCc2ccccn2)sc2c1CCCC2
Response line: 95.9

Prompt line: # get_value(readout='viability at 28.5 h, 10 µM', item= CCCc1n[nH]c(-c2ccccc2Cl)c1C(=O)OCC )
Response line: 107

Prompt line: Endpoint output: viability at 28.5 h, 10 µM of Cc1cccc(N(CC(=O)Nc2ccc3c(c2)oc2ccccc23)S(=O)(=O)c2ccccc2)c1 . Value?
Response line: 101

Prompt line: Any idea what viability at 28.5 h, 10 µM was measured for CC1CCc2c(sc3ncnc(SCC(=O)N(C)CCC#N)c23)C1 (stereo not drawn) ?
Response line: 106

Prompt line: viability at 28.5 h, 10 µM for CCN1C(=O)COC[C@@H]1[C@H](O)c1ccc(NC(=O)Cc2ccc(OC)cc2)cc1 ?
Response line: 90.2

Prompt line: Requested field: viability at 28.5 h, 10 µM. Item: COc1ccc2oc(-c3ccc(NC(=O)c4cccc5ccccc45)cc3)nc2c1
Response line: 110
